target: T1, soluble human CD3 epsilon chain (human, UniProt P07766 23-126); experiment: SPR
T1 construct: also called CD3ε
T1 sequence (P07766 23-126 limits assumed): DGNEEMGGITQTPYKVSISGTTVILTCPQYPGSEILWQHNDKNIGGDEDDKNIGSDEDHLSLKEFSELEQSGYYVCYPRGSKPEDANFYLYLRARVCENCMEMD
assay readout: Kd (nM)
Provide only the numeric value, understood in nM.

binder="TR01H067-E22Hh/none-Hi-Kn010G3/TR01L015-k0 (antibody, V domains shown, one-arm) VH: QVQLVESGGGLVQPGRSLRLSCAASGFTFSNAWMHWVRQAPGKGLEWVAQIKDKSQNYATYYAESVKGRFTISRDDSKNSLYLQMNSLKTEDTAVYYCRYVHYAASYGVDAWGQGTTVTVSS VL: DIVMTQSPLSLPVTPGEPASISCRSSQSPVHSNRNTYLHWYLQKPGQSPQLLIYKVSNRFSGVPDRFSGSGSGTDFTLKISRVEAEDVGVYYCGQGTQVPYTFGQGTKLEIK" assay_readout=Kd measured_result=86.4

Param item = TR01H041-E22Hh/none-Hi-Kn010G3/L0000-k0 (antibody, V domains shown, one-arm) VH: QVQLVESGGGLVQPGRSLRLSCAASGFTFSNAWMHWVRQAPGKGLEWVAQIKDKSQNYATYYAESVKGRFTISRADSKNSIYLQMNSLKTEDTAVYYCRYVHYSASYGVDYWGQGTTVTVSS VL: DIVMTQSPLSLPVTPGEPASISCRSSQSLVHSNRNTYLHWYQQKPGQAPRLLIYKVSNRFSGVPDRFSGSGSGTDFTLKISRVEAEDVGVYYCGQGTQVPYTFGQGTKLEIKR ; retrieve measured Kd.
31.6

TR01H076-E22Hh/none-Hi-Kn010G3/L0000-k0 (antibody, V domains shown, one-arm) VH: QVQLVESGGGVVQPGGSLRLSCAASGFTFSNAWMHWVRQAPGKGLEWVAQIKDKSQNYATYYAESVKGRFTISRADSKNSIYLQMNSLKTEDTAVYYCRYVHYAASYGVDYWGQGTTVTVSS VL: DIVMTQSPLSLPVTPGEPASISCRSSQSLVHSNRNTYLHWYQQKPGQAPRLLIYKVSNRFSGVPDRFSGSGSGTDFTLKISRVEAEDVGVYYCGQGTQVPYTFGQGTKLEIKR ?
47.8
